# Test system: Escherichia coli TOP10;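 further: peptides expressed intracellularly from a pBAD plasmid library in pooled LB shake-flask culture, induced with 0.3% L-arabinose, DNA abundance read by NGS, three biological replicates, DESeq2 with apeglm shrinkage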
# Assay Protocol: shrunken log2 fold change of peptide-encoding DNA abundance (4.5 h post-induction vs induction); higher = less antimicrobial activity (less host growth inhibition)
# Applied Conditions: time post-induction: 4.5 h; library: site-saturation at positions 5, 18, 19, 20
Threshold check on shrunken log2 fold change: at or above -0.02 gives T, strictly below gives F.

* RRIRGRPPRLPRPRPRPEVNPRP | T
* RRIRCRPPRLPRPRPRPNMDPRP | F

Ask | Decide: shrunken log2 fold change of RRIRFRPPRLPRPRPRPGIWPRP >= -0.02?
Reply | T

Ask | Decide: shrunken log2 fold change of RRIRRRPPRLPRPRPRPLLTPRP >= -0.02?
Reply | T

Ask | Decide: shrunken log2 fold change of RRIRIRPPRLPRPRPRPNNAPRP >= -0.02?
Reply | F

Ask | Decide: shrunken log2 fold change of RRIRKRPPRLPRPRPRPCCEPRP >= -0.02?
Reply | T

Ask | Decide: shrunken log2 fold change of RRIRVRPPRLPRPRPRPWPQPRP >= -0.02?
Reply | T

Ask | Decide: shrunken log2 fold change of RRIRERPPRLPRPRPRPFAMPRP >= -0.02?
Reply | F

Ask | Decide: shrunken log2 fold change of RRIRMRPPRLPRPRPRPPQWPRP >= -0.02?
Reply | T

Ask | Decide: shrunken log2 fold change of RRIRMRPPRLPRPRPRPIKRPRP >= -0.02?
Reply | T

Ask | Decide: shrunken log2 fold change of RRIRPRPPRLPRPRPRPCTGPRP >= -0.02?
Reply | T

Ask | Decide: shrunken log2 fold change of RRIRTRPPRLPRPRPRPYRKPRP >= -0.02?
Reply | F

Ask | Decide: shrunken log2 fold change of RRIRKRPPRLPRPRPRPTYGPRP >= -0.02?
Reply | T

Ask | Decide: shrunken log2 fold change of RRIRDRPPRLPRPRPRPPALPRP >= -0.02?
Reply | T

Ask | Decide: shrunken log2 fold change of RRIRCRPPRLPRPRPRPFFHPRP >= -0.02?
Reply | F

Ask | Decide: shrunken log2 fold change of RRIRRRPPRLPRPRPRPHPYPRP >= -0.02?
Reply | F

Ask | Decide: shrunken log2 fold change of RRIRLRPPRLPRPRPRPILPPRP >= -0.02?
Reply | F

Ask | Decide: shrunken log2 fold change of RRIRERPPRLPRPRPRPSMPPRP >= -0.02?
Reply | F

Ask | Decide: shrunken log2 fold change of RRIRGRPPRLPRPRPRPIRPPRP >= -0.02?
Reply | T

Ask | Decide: shrunken log2 fold change of RRIRYRPPRLPRPRPRPHHQPRP >= -0.02?
Reply | F
